assay.target: T1, cynoGITR on 293F‐cynoGITR cells (Macaca fascicularis)
T1 construct: also called 293F‐cGITR
T1 chain: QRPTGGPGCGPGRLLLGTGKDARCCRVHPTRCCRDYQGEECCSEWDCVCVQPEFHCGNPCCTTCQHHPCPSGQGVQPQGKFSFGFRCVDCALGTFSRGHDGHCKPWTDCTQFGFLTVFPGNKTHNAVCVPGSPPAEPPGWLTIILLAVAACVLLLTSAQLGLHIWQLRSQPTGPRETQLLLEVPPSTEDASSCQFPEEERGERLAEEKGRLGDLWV
run.description: flow cytometry on cells; 293F‐hGITR or 293F‐cynoGITR cells incubated with antibodies at 4 °C for 1 h, fluorescent anti-rat/human secondary antibody; EC50 of MFI curve
assay.context: one partner purified
Please use 1 for EC50 under 0.3 nM and 0 for everything else, ties included.

binder	answer.label
hab064e1 (antibody, V domains shown, 3503‐hab064‐VH(N2S); the substitution is against the VH of m13; position not given; 3503‐hab064‐Vk(T2K/C2Y); the substitutions are against the VL of m13; positions not given; Whole antibody, human IgG1 heavy chain constant region, human kappa light chain constant region; source: FreeStyle 293F, transiently co-transfected, purified from culture supernatant) VH: QVQLVESGGGVVQPGRSLRLSCAASGFTFSSYGMHWVRQAPGKGLEWVAVIWYETSNKYYADSVKGRFTISRDNSKNTLYLQMNSLRAEDTAVYYCARYGGNSGWYWYFDLWGRGTLVTVSS VL: DIQLTQSPSFLSASVGDRVTITCRASQGISSFLAWYQQKPGKAPKLLIYAASTLQSGVPSRFSGSGSGTEFTLTISSLQPEDFATYYCQQLNSYPFTFGQGTKLEIK	0
hab076e1 (antibody, V domains shown, as the VH of m15 (3503‐hab076‐VH); 3503‐hab076‐Vk(C2Y); the substitution is against the VL of m15 (Cys in FR3 of VL); position not given; Whole antibody, human IgG1 heavy chain constant region, human kappa light chain constant region; source: FreeStyle 293F, transiently co-transfected, purified from culture supernatant) VH: QVQLVESGGGVVQPGRSLRLSCAASGFTFSSYGMHWVRQAPGKGLEWVAVIWYETSNKYYADSVKGRFTISRDNSKNTLYLQMNSLRAEDTAVYYCARYGASSGWYWYFDLWGRGTLVTVSS VL: DIQLTQSPSFLSASVGDRVTITCRASQGISSYLAWYQQKPGKAPKLLIYAASTLQSGVPSRFSGSGSGTEFTLTISSLQPEDFATYYCQQLNSYPFTFGQGTKLEIK	1
hab070e1 (antibody, V domains shown, as the VH of m14 (3503‐hab070‐VH); 3503‐hab070‐Vk(C2Y); the substitution is against the VL of m14 (Cys in FR3 of VL); position not given; Whole antibody, human IgG1 heavy chain constant region, human kappa light chain constant region; also called hab70e1; source: FreeStyle 293F, transiently co-transfected, purified from culture supernatant) VH: QVQLVESGGGVVQPGRSLRLSCAASGFTFSSYGMHWVRQAPGKGLEWVAVIWYETSNKFYVDSVKGRFTISRDNSKNTLYLQMNSLRAEDTAVYYCARYGASSGWYWYFDLWGRGTLVTVSS VL: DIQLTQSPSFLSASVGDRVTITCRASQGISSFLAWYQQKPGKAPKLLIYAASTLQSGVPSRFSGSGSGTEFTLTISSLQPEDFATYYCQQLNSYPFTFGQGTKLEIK	1
mAb070 (antibody, V domains shown, as the VH of m14; as the VL of m14; Human-murine chimeric antibody from H2L2 mice: human variable regions, rat constant regions; source: hybridoma cell culture supernatant, purified (Protein A)) VH: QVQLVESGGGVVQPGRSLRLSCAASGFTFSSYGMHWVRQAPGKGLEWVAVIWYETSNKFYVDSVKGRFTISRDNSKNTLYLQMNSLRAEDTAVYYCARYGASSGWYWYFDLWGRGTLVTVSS VL: DIQLTQSPSFLSASVGDRVTITCRASQGISSFLAWYQQKPGKAPKLLIYAASTLQSGVPSRFSGSGSGTEFTLTISSLQPEDFATYCCQQLNSYPFTFGQGTKLEIK	1
mAb064 (antibody, V domains shown, as the VH of m13; as the VL of m13; Human-murine chimeric antibody from H2L2 mice: human variable regions, rat constant regions; source: hybridoma cell culture supernatant, purified (Protein A)) VH: QVQLVESGGGVVQPGRSLRLSCAASGFTFSSYGMHWVRQAPGKGLEWVAVIWYETSNKYYADSVKGRFTISRDNSKNTLYLQMNNLRAEDTAVYYCARYGGNSGWYWYFDLWGRGTLVTVSS VL: DIQLTQSPSFLSASVGDRVTITCRASQGISSFLAWYQQKPGTAPKLLIYAASTLQSGVPSRFSGSGSGTEFTLTISSLQPEDFATYCCQQLNSYPFTFGQGTKLEIK	0

# credit: paper PMC9340783
